// values below are reported phage binding ELISA signal (Anti-PSMA Fab with PSMA)
Biological target: T1, Anti-PSMA Fab (biotinylated (site not stated))
T1 construct: Biotinylated PSMA Fab captured on neutravidin coated plates; also called 006 PSMA Fab
Test: clonal phage ELISA on plate-captured biotinylated PSMA Fab, wells pre-incubated with PSMA antigen as competitor
Please respond with just the number, no unit label.

Example binders with recorded phage binding ELISA signal (Anti-PSMA Fab with PSMA):
EGGYCVPTWMCSGF (tested as crude clonal phage supernatant) [Phage-3960] :: 0.0786
AEMLCVPPWMCKAF (tested as crude clonal phage supernatant) [Phage-3959] :: 0.0615
FDGWCVPAWMCYPF (tested as crude clonal phage supernatant) [Phage-3962] :: 0.0796
DVLMCKPEWMCLGY (tested as crude clonal phage supernatant) [Phage-3956] :: 0.0628
MATMCVPQWMCAGF (tested as crude clonal phage supernatant) [Phage-3965] :: 0.141

Give phage binding ELISA signal (Anti-PSMA Fab with PSMA) for FFQVCEPQWMCLGF (tested as crude clonal phage supernatant) [Phage-3954]
0.0548

Give phage binding ELISA signal (Anti-PSMA Fab with PSMA) for GSVFCIPTWMCEQS (tested as crude clonal phage supernatant) [Phage-3966]
0.07

Give phage binding ELISA signal (Anti-PSMA Fab with PSMA) for TIQWCEPLWMCRGF (tested as crude clonal phage supernatant) [Phage-3957]
0.0643
